# target-desc: human orexin-1 receptor (Homo sapiens (Human), UniProt O43613)
# Sequence (O43613 whole entry): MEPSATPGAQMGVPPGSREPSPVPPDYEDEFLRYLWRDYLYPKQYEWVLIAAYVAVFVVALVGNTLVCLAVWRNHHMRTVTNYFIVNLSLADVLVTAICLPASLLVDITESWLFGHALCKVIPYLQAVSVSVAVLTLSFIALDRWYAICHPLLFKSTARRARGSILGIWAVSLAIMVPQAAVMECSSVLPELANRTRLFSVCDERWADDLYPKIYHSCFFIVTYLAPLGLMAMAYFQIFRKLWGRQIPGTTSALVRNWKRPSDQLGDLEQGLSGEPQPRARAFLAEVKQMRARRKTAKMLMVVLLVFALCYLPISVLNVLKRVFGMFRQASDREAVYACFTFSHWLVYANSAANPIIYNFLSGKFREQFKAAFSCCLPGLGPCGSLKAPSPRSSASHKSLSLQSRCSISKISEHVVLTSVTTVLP
# measurement-notes: In vitro assay: intracellular calcium measurements (FLIPR), antagonistic activity
# Format: cell-based
# condition-parameters: CHO cells, 3 nM orexin-A, compound incubation 120 min; marked values are geometric means of n = 2-6; read-out: IC50 OX1
Sorting guide: entries reporting IC50 beneath 900 nM go in the fulfilled pile, the rest go in the not fulfilled pile.

COc1cccc(OC)c1C1CC(C)C(=O)N1Cc1ccc(SC(F)(F)F)cc1 (centres unmarked) :: fulfilled
COc1cccc(OC)c1C1CCCC(=O)N1Cc1cccc(-c2ncc(C)s2)c1 (centres unmarked) :: fulfilled
COc1cncc(OC)c1C1CCCCC(=O)N1Cc1cccc(-c2ccccc2)c1 (centres unmarked) :: fulfilled
CCOc1c(F)cccc1[C@@H]1C[C@@H](Cl)C(=O)N1Cc1ccc(OC(F)(F)F)cc1 (racemic) :: not fulfilled
COc1cccc(OC)c1C1CCC(=O)N1Cc1cccc(-c2noc(C)n2)c1 (centres unmarked) :: fulfilled
COc1cccc(OC)c1C1CCCC(=O)N1Cc1cccc(-c2cccnc2)c1 (centres unmarked) :: fulfilled
CCOc1cccc(F)c1C1CC(C)C(=O)N1Cc1ccc(OC(F)(F)F)c(F)c1 (centres unmarked) :: not fulfilled

Now, please, on to the next compound.
Data request: Is the reported IC50 for COc1cccc(OC)c1C1CC(C)C(=O)N1Cc1ccc(OCCF)cc1 (centres unmarked) strictly below 900 nM?
Data returned: fulfilled

---

Measured pIC50, listed per entry.
# target-desc: human orexin-1 receptor (Homo sapiens (Human), UniProt O43613)
# measurement-notes: In vitro assay: intracellular calcium measurements (FLIPR), antagonistic activity
# Format: cell-based
# condition-parameters: CHO cells, 3 nM orexin-A, compound incubation 120 min; marked values are geometric means of n = 2-6; read-out: IC50 OX1
Keep it numeric: pIC50 is minus log10 of the concentration in mol/L.

Example cases with answers are listed next.
COc1cccc(OC)c1C1CCCCC(=O)N1Cc1ccc2ccccc2n1 (centres unmarked) [Example 79] :: 7.68
COc1cccc(OC)c1C1CC(F)(F)C(=O)N1Cc1cccc(-c2ccccc2)c1 (centres unmarked) [Example 336] :: 7.80
COc1cccc(OC)c1C1CC(C)C(=O)N1Cc1cccc(-c2ncc(C)s2)c1 (centres unmarked) [Example 148] :: 8.52

Data request: Which measured pIC50 belongs to CC1CC(c2c(F)cccc2OCCF)N(Cc2ccc(OC(F)(F)F)cc2)C1=O (centres unmarked) [Example 414] , tested on human orexin-1 receptor (Homo sapiens (Human), UniProt O43613)?
Data returned: 5.82

Data request: Which measured pIC50 belongs to COc1ccc2ccccc2c1C1CCCC(=O)N1Cc1cccc(Oc2ccccc2)c1 (centres unmarked) [Example 447] , tested on human orexin-1 receptor (Homo sapiens (Human), UniProt O43613)?
Data returned: 6.95

Data request: Which measured pIC50 belongs to O=C1[C@H](Cl)C[C@@H](c2cccc3c2OCCO3)N1Cc1ccc(OC(F)(F)F)cc1 (racemic) [Example 322] , tested on human orexin-1 receptor (Homo sapiens (Human), UniProt O43613)?
Data returned: 5.97

Data request: Which measured pIC50 belongs to COc1ccc2ccccc2c1[C@@H]1C[C@H](Cl)C(=O)N1Cc1ccc(OC(F)(F)F)cc1 (racemic) [Example 316] , tested on human orexin-1 receptor (Homo sapiens (Human), UniProt O43613)?
Data returned: 6.48

Data request: Which measured pIC50 belongs to COc1cccc(C)c1[C@@H]1C[C@H](F)C(=O)N1Cc1ccc(OC(F)(F)F)cc1 (racemic) [Example 325] , tested on human orexin-1 receptor (Homo sapiens (Human), UniProt O43613)?
Data returned: 5.86

Data request: Which measured pIC50 belongs to COc1cccc(OC)c1C1CCCC(=O)N1Cc1ccnc(-c2ccccc2)c1 (centres unmarked) [Example 12] , tested on human orexin-1 receptor (Homo sapiens (Human), UniProt O43613)?
Data returned: 7.60

Data request: Which measured pIC50 belongs to COc1cccc(OC)c1C1CCC(=O)N1Cc1ccc(Oc2nccs2)cc1 (centres unmarked) [Example 282] , tested on human orexin-1 receptor (Homo sapiens (Human), UniProt O43613)?
Data returned: 6.86

Data request: Which measured pIC50 belongs to COc1cccc(OC)c1C1CCCC(=O)N1Cc1ccc2ccccc2n1 (centres unmarked) [Example 4b] , tested on human orexin-1 receptor (Homo sapiens (Human), UniProt O43613)?
Data returned: 5.85
